Source: patent US20160362487A1

# test_system: T1, cynomolgus monkey IL-33 expressed with a C-terminal hexahistidine tag (cynomolgus monkey)
# T1 construct: also called MfIL-33-6His; Mf-IL-33-6His
# T1 chain: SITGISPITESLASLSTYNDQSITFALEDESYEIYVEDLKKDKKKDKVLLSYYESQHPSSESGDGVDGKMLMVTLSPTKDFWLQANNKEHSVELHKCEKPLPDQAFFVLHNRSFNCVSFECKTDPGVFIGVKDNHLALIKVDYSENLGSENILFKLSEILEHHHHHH
# test_method_notes: SPR 25C pH7.4, mAb captured
measurement_label: Kd (nM)
// return numeric value only (unit: nM, not printed)

Here's what some known entries look like.
INSERT INTO measurements (binder, result_unit, numeric_readout) VALUES
  ('H4H9675P (antibody, human IgG4, V domains shown, Human IgG4 Fc (H4H)) VH: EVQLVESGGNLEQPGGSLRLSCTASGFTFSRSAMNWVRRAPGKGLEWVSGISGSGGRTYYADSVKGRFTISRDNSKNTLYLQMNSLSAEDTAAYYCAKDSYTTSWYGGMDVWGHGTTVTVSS VL: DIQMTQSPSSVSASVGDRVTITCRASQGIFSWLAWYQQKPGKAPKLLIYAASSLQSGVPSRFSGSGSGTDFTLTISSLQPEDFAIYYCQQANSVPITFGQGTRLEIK', 'nM', 2.55),
  ('H4H9664P (antibody, human IgG4, V domains shown, Human IgG4 Fc (H4H)) VH: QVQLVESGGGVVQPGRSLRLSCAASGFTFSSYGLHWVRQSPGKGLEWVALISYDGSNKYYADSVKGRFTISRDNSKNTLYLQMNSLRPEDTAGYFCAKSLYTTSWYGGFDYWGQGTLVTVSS VL: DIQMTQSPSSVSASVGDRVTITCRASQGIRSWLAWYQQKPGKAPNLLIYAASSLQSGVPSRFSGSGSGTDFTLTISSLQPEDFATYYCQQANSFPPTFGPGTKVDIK', 'nM', 11.8),
  ('H4H9659P (antibody, human IgG4, V domains shown, Human IgG4 Fc (H4H)) VH: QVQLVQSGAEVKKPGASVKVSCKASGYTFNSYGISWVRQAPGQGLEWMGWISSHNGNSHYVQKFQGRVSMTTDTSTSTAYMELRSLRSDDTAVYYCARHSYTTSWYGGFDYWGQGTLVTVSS VL: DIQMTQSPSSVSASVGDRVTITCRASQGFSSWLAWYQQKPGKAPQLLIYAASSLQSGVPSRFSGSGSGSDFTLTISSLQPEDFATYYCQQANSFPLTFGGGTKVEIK', 'nM', 1.5),
  ('H4H9663P (antibody, human IgG4, V domains shown, Human IgG4 Fc (H4H)) VH: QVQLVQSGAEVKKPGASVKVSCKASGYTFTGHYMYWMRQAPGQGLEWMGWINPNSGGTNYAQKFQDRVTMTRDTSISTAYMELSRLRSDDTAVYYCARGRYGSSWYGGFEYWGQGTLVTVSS VL: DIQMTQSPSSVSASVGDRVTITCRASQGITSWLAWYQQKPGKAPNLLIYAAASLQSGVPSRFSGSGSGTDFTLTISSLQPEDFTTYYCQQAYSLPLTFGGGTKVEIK', 'nM', 1.06);

For H1M9559N (antibody, mouse IgG1, V domains shown, Human variable domains, mouse IgG1 Fc (H1M)) VH: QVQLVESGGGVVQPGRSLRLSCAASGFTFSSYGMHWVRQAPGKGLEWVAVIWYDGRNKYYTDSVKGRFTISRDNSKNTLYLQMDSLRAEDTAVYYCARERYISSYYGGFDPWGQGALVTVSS VL: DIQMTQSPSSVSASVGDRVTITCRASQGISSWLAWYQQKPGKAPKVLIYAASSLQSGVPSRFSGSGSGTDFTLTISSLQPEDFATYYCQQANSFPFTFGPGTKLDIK the binder record lists Kd as 3.82
